molecular target: UniProt P15056; experiment: Biochemical Assay for B-Raf (1); conditions: Table J, biochemical assay (1); read-out: BRAF (1)
Sequence (P15056 416-766): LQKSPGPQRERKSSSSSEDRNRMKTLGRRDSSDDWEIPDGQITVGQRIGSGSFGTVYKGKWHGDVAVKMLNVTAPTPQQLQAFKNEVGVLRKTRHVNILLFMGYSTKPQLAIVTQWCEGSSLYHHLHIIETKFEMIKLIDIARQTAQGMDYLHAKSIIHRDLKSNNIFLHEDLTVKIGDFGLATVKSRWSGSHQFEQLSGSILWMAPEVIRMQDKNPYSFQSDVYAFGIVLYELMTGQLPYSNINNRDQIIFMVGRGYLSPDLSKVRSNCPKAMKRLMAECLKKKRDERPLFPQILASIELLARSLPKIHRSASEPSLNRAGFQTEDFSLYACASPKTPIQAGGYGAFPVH
parameter: IC50

Below, 3 compounds whose answers are already recorded.
>  <smiles-representation>
Cc1ccc(NC(=O)c2cc(C3CC3)on2)cc1-c1cncc(-c2cc(NC(=O)C3CC3)ncn2)c1

>  <tested-target>
UniProt P15056

>  <IC50>
≤ 100 nM

$$$$
>  <smiles-representation>
CNC(=O)c1cc(-c2cncc(-c3cc(NC(=O)c4ccnc(C(C)(C)F)c4)ccc3C)c2)ccn1

>  <tested-target>
UniProt P15056

>  <IC50>
≤ 100 nM

$$$$
>  <smiles-representation>
COC(=O)Nc1cc(-c2cc(-c3cc(NC(=O)c4ccnc(C(C)(C)F)c4)ccc3C)nc(C)n2)ccn1

>  <tested-target>
UniProt P15056

>  <IC50>
≤ 100 nM

$$$$

Q. Supply reported IC50 belonging to this compound: `CNC(=O)c1cc(-c2cncc(-c3cc(NC(=O)c4ccnc(C(C)(C)F)c4)c(F)cc3C)c2)ccn1`
A. 100 to 500 nM

---

system: WM3928 cells; assay: WM3928 Cell Proliferation Assay (1); type: cell-based
pIC50: −log10 of the molar value.
Parameter: pIC50. Scope: all listed entries.

>  <smiles-representation>
Cc1ncc(NC(=O)c2cccc(C(F)(F)F)c2)cc1-c1cccc(-c2ccnc(NC(=O)CC#N)c2)c1

>  <parameter>
pIC50

>  <reported>
≥ 7.00

$$$$

Q. Supply reported pIC50 belonging to this molecule: `COCCNc1cc(-c2nccc(-c3cc(NC(=O)c4ccnc(C(C)(C)C#N)c4)ccc3C)n2)ccn1`
A. 6.00 to 6.30

Q. Supply reported pIC50 belonging to this molecule: `Cc1ccc(NC(=O)c2ccnc(C3(C#N)CC3)c2)cc1-c1nccc(-c2ccnc(NC(=O)C3CC3)c2)n1`
A. ≥ 7.00

Q. Supply reported pIC50 belonging to this molecule: `Cc1ccc(NC(=O)c2ccnc(C(C)(C)C#N)c2)cc1-c1ccnc(-c2ccnc(C(=O)NC3CC3)c2)c1`
A. 6.30 to 7.00

Q. Supply reported pIC50 belonging to this molecule: `Cc1ccc(NC(=O)c2cc(CN(C)C)cc(C(F)(F)F)c2)cc1-c1cccc(-c2cc(NC(=O)C3CC3)ncn2)c1`
A. ≥ 7.00

Q. Supply reported pIC50 belonging to this molecule: `CNC(=O)c1cc(-c2ccnc(-c3cc(NC(=O)c4ccnc(C(C)(C)C#N)c4)cnc3C)n2)ccn1`
A. 5.00 to 6.00

Q. Supply reported pIC50 belonging to this molecule: `Cc1cc(F)c(NC(=O)c2ccnc(C(C)(C)F)c2)cc1-c1cncc(-c2ccnc(NC(=O)C3CC3)c2)c1`
A. ≥ 7.00

Q. Supply reported pIC50 belonging to this molecule: `CC(=O)Nc1cc(-c2cncc(-c3cc(NC(=O)c4cc(C(F)(F)F)ccn4)ccc3C)n2)ccn1`
A. ≥ 7.00

Q. Supply reported pIC50 belonging to this molecule: `Cc1ncc(NC(=O)c2cnn(C(C)(C)C)c2)cc1-c1cccc(-c2cc(NC(=O)C3CC3)ncn2)c1`
A. ≥ 7.00

Q. Supply reported pIC50 belonging to this molecule: `CNC(=O)c1cc(-c2cc(-c3cc(NC(=O)c4ccnc(C(F)(F)F)c4)ccc3C)ncn2)ccn1`
A. 5.00 to 6.00

Q. Supply reported pIC50 belonging to this molecule: `Cc1ccc(NC(=O)c2ccnc(C(C)(C)F)c2)cc1-c1cncc(-c2ccnc(C(N)=O)c2)c1`
A. ≥ 7.00
